# targetOrSystem: T1, KRAS G12D peptide on HLA-A*11:01 (human)
# T1 peptide: VVVGADGVGK
# experimentalDetails: cytokine release
quantity: binding result

[
  {
    "binder": "TRAV3-3*01 + TRBV13-1*02 (TCR, V domains shown) Valpha: GEQVEQRPPHLSVREGDSAVITCTYTDPNSYYFFWYKQEPGASLQLLMKVFSSTEINEGQGFTVLLNKKDKRLSLNLTAAHPGDSAAYFCAVSGGTNSAGNKLTFGIGTRVLVRP Vbeta: EAAVTQSPRNKVTVTGGNVTLSCRQTNSHNYMYWYRQDTGHGLRLIHYSYGAGNLQIGDVPDGYKATRTTQEDFFLLLELASPSQTSLYFCASASWGGYAEQFFGPGTRLTVL",
    "binding result": "no recognition"
  },
  {
    "binder": "TRAV12N-3*01 + TRBV5*01 (TCR) Valpha: GDSVTQTEGLVTLTEGLPVMLNCTYQTIYSNPFLFWYVQHLNESPRLLLKSFTDNKRTEHQGFHATLHKSSSSFHLQKSSAQLSDSALYYCALRGNAGAKLTFGGGTRLTVRP beta TRBV5*01 2*01/2-1*01 CDR3: CASSQDSLGRAEQFF",
    "binding result": "no recognition"
  },
  {
    "binder": "TRAV3-3*01/TRBV4*01 murine anti-KRAS G12V TCR (SEQ ID NOs: 133 and 134) (TCR, V domains shown) Valpha: GEQVEQRPPHLSVREGDSAVITCTYTDPNSYYFFWYKQEPGASLQLLMKVFSSTEINEGQGFTVLLNKKDKRLSLNLTAAHPGDSAAYFCAVSGGTNSAGNKLTFGIGTRVLVRP Vbeta: ETAVFQTPNYHVTQVGNEVSFNCKQTLGHDTMYWYKQDSKKLLKIMFSYNNKQLIVNETVPRRFSPQSSDKAHLNLRIKSVEPEDSAVYLCASSRDWGPAEQFFGPGTRLTVL",
    "binding result": "no recognition"
  },
  {
    "binder": "Substituted TRAV4-4/DV10*01/BV12-2*01 (CDR3alpha G112A) (SEQ ID NOs: 209 and 158) (TCR, V domains shown) Valpha: GDQVEQSPSALSLHEGTDSALRCNFTTTMRSVQWFRQNSRGSLISLFYLASGTKENGRLKSAFDSKERRYSTLHIRDAQLEDSGTYFCAADSSNTAYQNFYFGKGTSLTVIP Vbeta: NSGVVQSPRYIIKGKGERSILKCIPISGHLSVAWYQQTQGQELKFFIQHYDKMERDKGNLPSRFSVQQFDDYHSEMNMSALELEDSAVYFCASSLTDPLDSDYTFGSGTRLLVI",
    "binding result": "recognises"
  },
  {
    "binder": "TRAV19*01/TRBV13-1*02 murine anti-KRAS G12V TCR (SEQ ID NOs: 145 and 146) (TCR, V domains shown) Valpha: GQQVKQSSPSLTVQEGGILILNCDYENDMFDYFAWYKKYPDNSPTLLISVRSNVDKREDGRFTVFLNKSGKHFSLHITASQPEDTAVYLCAAGDSGGSNYKLTFGKGTLLTVTP Vbeta: EAAVTQSPRNKVTVTGGNVTLSCRQTNSHNYMYWYRQDTGHGLRLIHYSYGAGNLQIGDVPDGYKATRTTQEDFFLLLELASPSQTSLYFCASASWGGYAEQFFGPGTRLTVL",
    "binding result": "no recognition"
  },
  {
    "binder": "TRAV12N-3*01/BV4*01 murine anti-KRAS G12D TCR (SEQ ID NOs: 11 and 12) (TCR, V domains shown) Valpha: GDSVTQTEGLVTLTEGLPVMLNCTYQTIYSNPFLFWYVQHLNESPRLLLKSFTDNKRTEHQGFHATLHKSSSSFHLQKSSAQLSDSALYYCALRGNAGAKLTFGGGTRLTVRP Vbeta: ETAVFQTPNYHVTQVGNEVSFNCKQTLGHDTMYWYKQDSKKLLKIMFSYNNKQLIVNETVPRRFSPQSSDKAHLNLRIKSVEPEDSAVYLCASSSRDWSAETLYFGSGTRLTVL",
    "binding result": "recognises"
  }
]

Next item in the queue.
Return the recorded binding result value; entry: TRAV19*01 + TRBV4*01 (TCR, V domains shown) Valpha: GQQVKQSSPSLTVQEGGILILNCDYENDMFDYFAWYKKYPDNSPTLLISVRSNVDKREDGRFTVFLNKSGKHFSLHITASQPEDTAVYLCAAGDSGGSNYKLTFGKGTLLTVTP Vbeta: ETAVFQTPNYHVTQVGNEVSFNCKQTLGHDTMYWYKQDSKKLLKIMFSYNNKQLIVNETVPRRFSPQSSDKAHLNLRIKSVEPEDSAVYLCASSRDWGPAEQFFGPGTRLTVL
no recognition
